Recorded values, source ChEMBL document CHEMBL4689842.

- System: U2OS
- test-protocol: Multiplex assay against U2OS
- Assay type: toxicity, cell-based
- protocol-conditions: human, 24 h, 10 µM, compound concentration 10 uM, replicate 2
Kindly supply the reported Total Cell Count values for the records listed here.

Known Total Cell Count results, listed for orientation:
- compound: "CN1C2CCC1CC(OC(c1ccc(F)cc1)c1ccc(F)cc1)C2.Cl (stereo not drawn)"
  Total Cell Count: 107
- compound: "Cc1cc(C)c(S(=O)(=O)N(Cc2ccc(-c3cccc(S(C)(=O)=O)c3)cc2)Cc2ccc(C(F)(F)F)o2)c(C)c1"
  Total Cell Count: 109
- compound: "CCN1CCN(Cc2ccc(Nc3ncc(F)c(-c4cc(F)c5nc(C)n(C(C)C)c5c4)n3)nc2)CC1.CS(=O)(=O)O"
  Total Cell Count: 74

Dear reader, for each entry below, please note its Total Cell Count.
1. COc1ccc(S(=O)(=O)N(CCO)c2ccccc2CN(C)C/C=C/c2ccc(Cl)cc2)cc1.O=P(O)(O)O
2. CN1CCN(C(=O)C(C)(C)c2ccc(C(=O)Nc3cn4cc(-c5cc(C(C)(C)C)cc(C(C)(C)C)c5)ccc4n3)cc2)CC1 [T3-CLK-N]
3. Cc1ccc(C(=O)Nc2cccc(C(F)(F)F)c2)cc1Nc1nc(-c2cccnc2)nc2c1cnn2C
4. CNc1cc(Oc2cc(C(=O)Nc3cc(N4CCN(C)CC4)cc(C(F)(F)F)c3)ccc2C)ncn1

Solution:
1: 83; 2: 144; 3: 77; 4: 76

Problem: What measured Total Cell Count goes with COCC(=O)NC/C=C/c1ccc2ncnc(Nc3ccc(Oc4ccc(C)nc4)c(C)c3)c2c1 [CP-724714] ?
Solution: 60
